Observed GI50, system MV-4-11.
Readout Type: GI50 (nM)

compound="Cc1cc(N2C(=O)c3c(C4CNC4)cn(C)c3C2c2ccc(Cl)cc2)nc2c1nnn2C (centres unmarked) [Example 130]" readout_type=GI50 reported_relation=< result_number=3
compound="Cc1cn(C)c2c1C(=O)N(c1cc(C)c3nnn(C)c3c1)C2c1ccc(Cl)cc1 (centres unmarked) [Example 28]" readout_type=GI50 reported_relation== result_number=12.8
compound="Cc1cc(N2C(=O)c3cc(-c4cccn(C)c4=O)n(C)c3C2c2ccc(Cl)cc2)cn(C)c1=O (centres unmarked) [Example 47]" readout_type=GI50 reported_relation== result_number=98.4
compound="Cn1ccc2c1C(c1ccc(Cl)c(F)c1)N(c1cc(Cl)c(=O)n(C)c1)C2=O (centres unmarked) [Example 90]" readout_type=GI50 reported_relation== result_number=222
compound="Cc1cc(N2C(=O)c3c(C4CC4)cn(C)c3C2c2ccc(Cl)cc2)cn2c(C)nnc12 (centres unmarked) [Example 35]" readout_type=GI50 reported_relation== result_number=4.08
